- SUBJECT_OF_TEST: D. immitis Slo-1 (Dirofilaria immitis, UniProt I0DFK5)
- Sequence (I0DFK5 1-1119): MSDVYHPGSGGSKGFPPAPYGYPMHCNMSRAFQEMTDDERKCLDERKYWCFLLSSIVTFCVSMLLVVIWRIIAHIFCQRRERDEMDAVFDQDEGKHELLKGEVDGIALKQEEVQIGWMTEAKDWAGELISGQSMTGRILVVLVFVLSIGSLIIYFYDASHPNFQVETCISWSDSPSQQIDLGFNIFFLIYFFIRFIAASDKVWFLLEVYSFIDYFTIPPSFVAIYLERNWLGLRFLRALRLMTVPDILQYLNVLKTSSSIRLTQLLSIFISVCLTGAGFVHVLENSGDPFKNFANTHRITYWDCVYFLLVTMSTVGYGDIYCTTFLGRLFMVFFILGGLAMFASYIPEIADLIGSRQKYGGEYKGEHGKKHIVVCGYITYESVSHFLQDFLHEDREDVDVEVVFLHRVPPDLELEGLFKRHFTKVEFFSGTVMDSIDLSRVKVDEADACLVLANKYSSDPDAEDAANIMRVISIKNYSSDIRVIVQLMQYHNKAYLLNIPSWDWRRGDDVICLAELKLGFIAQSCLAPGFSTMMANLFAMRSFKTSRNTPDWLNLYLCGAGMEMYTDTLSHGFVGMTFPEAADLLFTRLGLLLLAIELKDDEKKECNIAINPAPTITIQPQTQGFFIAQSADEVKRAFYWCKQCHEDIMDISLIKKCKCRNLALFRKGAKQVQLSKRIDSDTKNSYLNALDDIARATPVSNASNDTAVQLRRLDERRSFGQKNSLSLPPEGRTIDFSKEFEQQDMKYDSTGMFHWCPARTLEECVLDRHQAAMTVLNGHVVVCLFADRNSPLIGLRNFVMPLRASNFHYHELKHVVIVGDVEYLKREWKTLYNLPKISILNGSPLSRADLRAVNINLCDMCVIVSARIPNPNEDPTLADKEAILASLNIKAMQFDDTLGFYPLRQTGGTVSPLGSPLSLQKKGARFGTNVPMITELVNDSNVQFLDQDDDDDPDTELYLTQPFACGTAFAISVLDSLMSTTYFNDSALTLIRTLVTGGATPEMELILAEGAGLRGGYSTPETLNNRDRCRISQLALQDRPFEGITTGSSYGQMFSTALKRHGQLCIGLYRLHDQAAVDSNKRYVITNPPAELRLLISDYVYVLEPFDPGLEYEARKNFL
- ASSAY_OVERVIEW: In Vitro Assay 2: D. immitis Slo-1, action at a recombinant D. immitis cell line (membrane potential, FLIPR)
pEC50: −log10 of the molar value.
OBSERVED_PROPERTY: pEC50

COMPOUND: CN(C)c1c(NC(=O)C2CCc3ccccc32)cnc2c(-c3cccc(Cl)c3Cl)c(F)ccc12 (racemic)
pEC50: 6.00 to 7.00
--
COMPOUND: CCc1c(NC(=O)C2CCOc3ccccc32)cnc2c(-c3cc(F)cc(F)c3F)cccc12 (racemic)
pEC50: 6.00 to 7.00
--
COMPOUND: CN(C)c1c(NC(=O)C2CCOc3ccccc32)cnc2c(-c3cccc(Cl)c3Cl)c(F)ccc12 (racemic)
pEC50: 6.00 to 7.00
--
COMPOUND: O=C(Nc1cnc2c(-c3cc(Cl)cc(Cl)c3)c(F)ccc2c1N1CCOCC1)C1CCOc2ccccc21 (racemic)
pEC50: 7.00 to 8.00
--
COMPOUND: CN(C)c1c(NC(=O)C2CCOc3ccccc32)cnc2c(-c3cc(F)cc(F)c3F)cccc12 (racemic)
pEC50: 6.00 to 7.00
--
COMPOUND: CCc1c(NC(=O)C2CCOc3ccccc32)cnc2c(-c3cc(Cl)cc(Cl)c3)c(F)ccc12 (racemic)
pEC50: 6.00 to 7.00

Supply measured pEC50 of CN(C)c1c(NC(=O)[C@H]2CCOc3ccccc32)cnc2c(-c3cc(F)cc(F)c3F)cccc12 in your reply.
6.00 to 7.00

Supply measured pEC50 of CN(C)c1c(NC(=O)C2CCc3ccccc32)cnc2c(-c3cc(F)cc(F)c3F)cccc12 (racemic) in your reply.
6.00 to 7.00

Supply measured pEC50 of CN(C)c1c(NC(=O)C2CCOc3ccccc32)cnc2c(-c3cc(F)cc(F)c3F)c(F)ccc12 (racemic) in your reply.
7.00 to 8.00

Supply measured pEC50 of O=C(Nc1cnc2c(-c3cc(F)cc(F)c3F)c(F)ccc2c1C1CCOCC1)C1CCOc2ccccc21 (racemic) in your reply.
7.00 to 8.00
